# method-description: yeast display, Sf9 membrane polyspecificity reagent, FACS + sequencing; frameworks hold sequencing errors

residue-string	polyreactivity (PSR sort gate)
QVQLVESGGGLVQAGGSLRLSCAASGIIFVENAMGWYRQAPGKERELVAAISWDGGSTYYADSVKGRFTISRDNAKNTVYLQMNSLKPEDTAVYYCAADLTISYSQEYYYWGQGTQVTVSS	low polyreactivity
QVQLVESGVGLVQAGGSLRLSCAASGSIFDINAMGWYRQAPGKERELVAVITDSGSTYYADSVKGRFTISRDNAKNTVYLQMNSLKPEDTAVYYCAAESSLLFFLMDYWGQGTQVTVSS	low polyreactivity
QVQLVESGGGLVQAGGSLRLSCAASGRTFYNYAMGWYRQAPGKEREFVAAISSSGGSTYYADSVKGRFTISRDNAKNTVYLQMNSLKPEDTAVYYCAAYYISFDYWGQGTKVTVSS	high polyreactivity
QVQLVESGGGLVQAGGSLRLSCAASGRIFGQYAMGWYRQAPGKERELVAAISWRGGTTYYADSVKGRFTISRDNAKNTVYLQMNSLKPEDTAVYYCNADVWVYPYDYWGQGTQVTVSS	low polyreactivity
QVQLEESGGGLVQAGRSLRLSCAASGRTFNAYTMGWYRQAPGKERELVAAITSSGGNTYYADSVKGRFTISRDNVKNSVSLQINSLKPEDTAVYYCTTVYLYGTHDYWGQGTQVTLSS	low polyreactivity
QVQLVESGGGLVQAGGSLRLSCAASGSTFYYNVMGSYRQAPGKERELVAAITLSGGSTYADSVKGRFTISRDNAKKTVYLQINSLKPEDTAVYYCAKKGRYGRWGYKFDYWGQGTQVTVSS	low polyreactivity
QVQLVESGGGLVQAGGSLRLSCAASGGIFYTYAMGWYRQAPGKERELVAAISSSGGSTYYADSVKGRFTISRDNAKNTVYLQMNSLKPEDTAVYYCAKDSSTGAGARRRYGYWGQGTQVTVSS	low polyreactivity
QVQLVESGGGLVQAGGSLRLSCAASGRTFLWNAMGWYRQAPGKERELVAAISISGGNTNYADSVKGRFTISRDNAKNTVYLQMNSLKPEDTAVYYCNADPRAEPGDWSYEMDYWGQGTQVTVSS	low polyreactivity
QVNLVETGGGLVQAVCSLRLSCAASGSIFGIYTMGWYRQAPGKERELVAAINSGGSTIYADSVKGRFTISRDNAKNTVYLQMNSLKPEDSAVYYWIAYIHPPGPRVYSREYDYWGQGTQLTVSS	low polyreactivity
QVQLVESGGGLVQAGGSLRLSCAASGRIFPRNAMGWYRQAPGKERELVAAISSGGGSTYYADSVKGRFTISRDNAKNTVYLQMNSLKPEDTAVYYCAKRAGWAGWYYRNDYWGQGTQVTVSS	high polyreactivity
QVQLVESGGGLVQAGGSLRLTCAASGRIFGTNAMGWYRQAPGKERELVADITSGGSTNYADSVKGRFTISRDNAKNTVYLLMNSLKPEDTAVYYCAADVIGDLRWYRDEYWGQGTQVTVSS	low polyreactivity

###

# method-description: yeast display, Sf9 membrane polyspecificity reagent, FACS + sequencing; frameworks hold sequencing errors

residue-string	polyreactivity (PSR sort gate)
QVPLVESGGGLVQAGGSLRLSCAASGGIFYSYAMGWYRQAPGKERELVPAIRTNGGTTYYADSVKGRFTISRDNAKNTVYLQLNSLKQEDTAVYYCDALPGSYYDRGEYDYWGQGTQVTVSS	low polyreactivity
QVQLLESGGGLVQAGGSLRLSCAASGRIFHYNAMGWYRQAPGKERELVAAITRRGTSTYYADSVKGRFTISRDNAKNTVYLQMNSLKPEDTAVYYCNTDTYYRLLDYWGQGTQVTVSS	low polyreactivity

###

# method-description: yeast display, Sf9 membrane polyspecificity reagent, FACS + sequencing; frameworks hold sequencing errors

residue-string	polyreactivity (PSR sort gate)
QVQLVESGGGLVQAGGSLRLSCAASGRTFGWYTMGWYRQAPGKEREFVAAISSSDTSTYYADSVKGRFTISRDNAKNTVYLQMNSLKPEDTAVYYCAADPPSWLWFVGYSYDYWGQGTQVTVTS	low polyreactivity
QVQLVESGGGLVQARGSLRLSCAATGLTFYSNAMGWSRQAPGKERELVARISTGGSTYADSVKGRFTISRDNAKNTVYLQMNSLKPEDTAVYYCAKLPPRGIDDEYWGQGTQVTVSS	low polyreactivity
QVQLVESGGGLVQAGGSLRLSCAASGSIIAINAMGWYRQAPGKERDLVAAISWNTGTTYYADSVKGRFTISRDNAKNTVYLQMNSLKPEDTAVYYCAADLWRWESLYKIWLPQYDYWGQGTQVTVSS	high polyreactivity
QVQLVESGGGLVQAGGSLRLSCAASGSTFLKYDMGWYRQAPGKERELVAAISWDGGSTYYADSVKGRFTISRDNAKNTVYLQMNSLKPEDTAVYYCNADYDVYLTIWYYYGEFDYWGQGTQVTVSS	low polyreactivity
QVQLVESGGGLVQAGGSLRLSCAASGSTFVGYAMVWYRQAPGKERELVAAISRSGGSTYYADSVKGRFTISRDNAKNTVYLQMNSLKPEDTAVYYCAAGARAFDDDFWGQGTQVNVSS	low polyreactivity
QVQLVESGGGLVQAGGSLRLSCAASGSTFSSYAMGWYRQAPGKERELVAAITSSGGSTYYADSVKGRFTISRDNAKNTVYLQMNSLKPEDTAVYYCAAADVIFWLYYYWGQGTQVTVSS	low polyreactivity
QDQLVDSGGGLVQAGGSLRLLCAPSGRTFGVYAMGRYIQAPGKERELVAAISRDGGSTYYADSVKGRFTISRDNAKNTVYLQMNSLIPEDTAVYYCNTDWRYRYGYWGQGTQVTVSS	high polyreactivity
QVQLVDSGGGLVQAGGSLRLSCAASGITIEYNDMGWYRQAPGTERELVAAISLSSGSTYYADSVKGRFTISRDNAKNTVYLQMNSLKPEDTAVYYCNADTIIYEGGYWGQGTQVTVSS	low polyreactivity
QVQLVESGGGLVQAGGSLRLSCAASGATFAQYAMGWYRQAPGKERELVAAISRGGGSTYCADSVKGRFTISRDNAKNTVYLQMNSLKPEDTAVYYCAADPRYRVTLGFDYWGQGSQVTVSS	high polyreactivity
LVQLVESGGGLVQAGGSLRLSCAASGGTIVYYTMGWYRHAPGKERELVATIDNSDGSTYYADSVKGRFTISRDNAKNTVDLQMNSLKPEDTPVYYCSKSLPHSTSRDYWGQGTQLTVSS	low polyreactivity
QVQLVESGGGLVQAGGSLRLSCAASGSTFRRYAMGWYRQAPGKERELVAAITWRGGSTYYADSVKGRFTISRDNAKNTVFLQMNSLKPEDTAVYYCATSDYYYDYWGQGTQVTVSS	high polyreactivity

###

# method-description: yeast display, Sf9 membrane polyspecificity reagent, FACS + sequencing; frameworks hold sequencing errors

residue-string	polyreactivity (PSR sort gate)
QVQLVESGGGLVQAGGSLRLSCAASGSIFRWNAMGSYRQAPGKERELVAVINSSGGSTYYADSVKGRFTISRDNAKNTVYLQMNSLKPEDTAVYYCAAVIYKIIYGQYAYDYWGQGTQVTVSS	low polyreactivity
QVQLVESAGGLVQAVGSLRLSCAASGRICGIYAMGWYRQAPGKERELVAAISFIGGRTYYADSVKGRFTISRDNAKNTVYLQMNSLKPEDTAVYDCAARTVPSSRREYWGQGTQVTVSS	high polyreactivity
QVQLVESGGGLVQAGGSLRLSCAASGRIFTYNAMGWYRQAPGKERELVAVISRRGGSTYYADSVKGRFTISRDYAKNTVYFQMNSLKAEDTAVYYCAGDLPSYPYEYWGQGTQVTVSS	low polyreactivity
QVQLVESGGGLVQAGGTLRLSCAASGLIFGRNAMGWYRQAPGKEREFVATYADSVKGRFTISRYNAKNTVYLQMNSLKPEDTAVYYCATRFVWPSYGYYVQGRFDSWGQGTQVTVSS	low polyreactivity
QVQLVESGGGLVQAGGSLRLSCAASGSIITSYTMGWYRQAPGKERELVAAISRSGGSTYYADSVKGRFTISRDNAKNTVYLQMNSLKPEDTAVYYCAARQSKLRRETPNDYWGQGTQVTVSS	high polyreactivity
QVQLVESGGGLVQAGGSLRLSCAASGRTFGPYAMGWYRQAPGKEREFVAAISYSGGSTYYADSVKGRFTISRDNAKNTVYLQMNSLKPEDTAVYYCAVDIDSNSGTRDYWGQGTQVTVSS	low polyreactivity
QFQLVESGGGLVQAGGSLRLSCAASGRIFDVNAMGWSRQAPGKESELVAAISTRGGGTYYADSVKGRFTISRDNAKNTVYLQMTSLKPEDTAVYYCNVVRRYGGRGIDYWGQGTQVTVSS	low polyreactivity
QVQLEESGGGLVQAGGSLRLSCAASGSTFLRYAIGWYRQAPGKEMELVAAITASGGSTFYADSVKGRFTISRDYAKNTVYLQMNSLKPEDTPVYYCAADVSYIGKYSHDLWIYGYYYWGQGTQVTVSS	low polyreactivity
QVQLVESGGGLVQAGGSLRLSCSDSGFIYRMYAMGWYRQAHGKETELVSAISSDASTNYADSVKGRFTISRDNAKNTVYLQMNSLKPEDTAVYYCAAAVKRGYAQSFISDGYGYWGQGTQVTVSS	low polyreactivity
QVQLVESGGGLVQAGGSLRLRCDASGLIFYDNMGWYRQAPGKERELVAAISSSGGSTSYADSVKGRFTISRDNAKNTVYLQMNSLKPEDTAVYYCAADSYPAYLGFVGFDYWGQGTQVTVSS	low polyreactivity
QVQLVESGGGLVQAGGSLRLSCAASGSTFSYNAMGWYRQAPGKERELVAAISRGDVSTYYADSVKGRFTISRDNAKNTVYLQMNSLKPEDSAVYYWAAYWYGSQYKWRYDYWGQGTQGTVSS	low polyreactivity
QVNLVESGGGLVQAGGSLRLSCAASGLTFARNAMGWYSQAPGKERELVASITSVGRTNYADSVKGRFTISRDNAKNTVYLEMNSLKPEDTAVYFCGAKPSWHGVYYWGQGTQVTVSS	low polyreactivity
QVQLVESGGGLVQAGGSLRLSCAASGSIFTFNAMGWYRQAPGKERELDAGISWRTSSTSYADSVKGRFTNSRDNAKNTVYLQMNSLKPEDTAVYYCATEDSWGYEEVDYWGQGTQVTVSS	low polyreactivity
QVQLVESGGGLVQAGGSLRLSCAASRFIFRRNAMGWYRQAPGKERELVAAITLSGGSTYYADSVKGRFTISRDNAKNTVYLQMKSLKPEDTAFYFCAARPGYYTRYDYWGQGTQVTVSS	low polyreactivity
QVQLVESGGGLVQAGGSLRLSCAASGRTFKSYAMGWYRQAPGKERELVATITRDGRTNYADSVKGRFTISRDNAKNTVYLQMNSLKPEDTAVYYCNADSRYRYDYWGLGTQVTVSS	low polyreactivity
QVQLVESGGGLVQAGGSLRLSCAASGSTFGLNAMGWYRQAPGKERELVAAITRSDITNYADSVKGRFTISRDNAKNTVYLQMNSLKPEDTAVDYCAARGLWPYDYWGQGTQVTVSS	low polyreactivity
QVQLVESGGGLVQAGGSLRLSCAASGSIFKQNTMGWYRQAPGKEREFVAAISSGGSTYYADSVKGRFTISRDNAKNTVYLQMNSLKPEDTAVYYCAKYYDWDYYLPLEGDYWGQGTQVTVSS	low polyreactivity
QVQLVESGGGLVQAGGSLRLSCAASGFIFRYYTMGWYRQAPGKERELVAAISYSGGRTYYADSVKGRFTISRDNAKNTVYLQMNSVKPEDTAVYYCAARQGYVDDDYWGQGTQVTVSS	high polyreactivity
QVQLVESAGGIDQAGGRLRLSSAASGGIFTPYAMGCYRQAPGKDRELVATISSDGSTNYADSVKGRFTISRDNAKNTVYLQMNSLKPEDTAVYYCNIDRHKVAGTLPGWWYDYLGQGTQVTVSS	low polyreactivity
QVQLVESGGGLVQAGGSLRLSCAAYGLTFCLNAMGWYRQAPGKERYLVAAIRYSGGGTYADSVKGRFTISRDNAMNTVYLQMISLKPEDTAVYYCAALYYLGYPQFDYWGQGTQVTVSS	low polyreactivity
QVQLVESGGGLVQAGGSLRLSCAASGIIFLNYAMGWYRQAPGKERELDAGITGRGGITYYTDSVKGRFTISRDNAKNTVYLQMNSLKPEDTAVYYCAARRYRFAGDYRMYYWGQGTQVTVSS	high polyreactivity
